The measurements presented in this section are drawn from ChEMBL document CHEMBL4382204.

method.description: Antiproliferative activity in mouse BAF3 cells after 72 hrs by CCK8 assay
Type: cell-based
Recorded GI50 at 72 h by entry

1. O=C(CCSc1ccc2c(/C=C/c3ccccn3)n[nH]c2c1)Nc1ccc(CN2CCCC2)c(C(F)(F)F)c1; 4 µM
2. CNC(=O)CCSc1ccc2c(/C=C/c3ccccn3)n[nH]c2c1; > 10 µM
3. Cc1cccc(NC(=O)CCSc2ccc3c(/C=C/c4ccccn4)n[nH]c3c2)c1; > 10 µM
4. O=C(CCSc1ccc2c(/C=C/c3ccccn3)n[nH]c2c1)Nc1ccc(CN2CCOCC2)c(C(F)(F)F)c1; 3.97 µM

Query string: Returns the measured GI50 at 72 h for the input compound. Input: `O=C(CCSc1ccc2c(/C=C/c3ccccn3)n[nH]c2c1)Nc1ccc(Cl)c(C(F)(F)F)c1`
Result string: > 10 µM

Query string: Returns the measured GI50 at 72 h for the input compound. Input: `Cc1n[nH]c2cc(SCCC(=O)Nc3ccc(CN4CCN(C)CC4)c(C(F)(F)F)c3)ccc12`
Result string: 3.9 µM

Query string: Returns the measured GI50 at 72 h for the input compound. Input: `O=C(CCSc1ccc2c(/C=C/c3ccccn3)n[nH]c2c1)Nc1ccccc1`
Result string: 0.69 µM

Query string: Returns the measured GI50 at 72 h for the input compound. Input: `O=C(CCSc1ccc2c(/C=C/c3ccccn3)n[nH]c2c1)NCc1cccc(C(F)(F)F)c1`
Result string: 8.03 µM

Query string: Returns the measured GI50 at 72 h for the input compound. Input: `O=C(CCSc1ccc2c(/C=C/c3ccccn3)n[nH]c2c1)Nc1cccc(C(F)(F)F)c1`
Result string: 2.3 µM

* * *

tested.on: Tyrosine-protein kinase ABL1 (Homo sapiens)
Sequence (P00519 whole entry, the tested form may be a part): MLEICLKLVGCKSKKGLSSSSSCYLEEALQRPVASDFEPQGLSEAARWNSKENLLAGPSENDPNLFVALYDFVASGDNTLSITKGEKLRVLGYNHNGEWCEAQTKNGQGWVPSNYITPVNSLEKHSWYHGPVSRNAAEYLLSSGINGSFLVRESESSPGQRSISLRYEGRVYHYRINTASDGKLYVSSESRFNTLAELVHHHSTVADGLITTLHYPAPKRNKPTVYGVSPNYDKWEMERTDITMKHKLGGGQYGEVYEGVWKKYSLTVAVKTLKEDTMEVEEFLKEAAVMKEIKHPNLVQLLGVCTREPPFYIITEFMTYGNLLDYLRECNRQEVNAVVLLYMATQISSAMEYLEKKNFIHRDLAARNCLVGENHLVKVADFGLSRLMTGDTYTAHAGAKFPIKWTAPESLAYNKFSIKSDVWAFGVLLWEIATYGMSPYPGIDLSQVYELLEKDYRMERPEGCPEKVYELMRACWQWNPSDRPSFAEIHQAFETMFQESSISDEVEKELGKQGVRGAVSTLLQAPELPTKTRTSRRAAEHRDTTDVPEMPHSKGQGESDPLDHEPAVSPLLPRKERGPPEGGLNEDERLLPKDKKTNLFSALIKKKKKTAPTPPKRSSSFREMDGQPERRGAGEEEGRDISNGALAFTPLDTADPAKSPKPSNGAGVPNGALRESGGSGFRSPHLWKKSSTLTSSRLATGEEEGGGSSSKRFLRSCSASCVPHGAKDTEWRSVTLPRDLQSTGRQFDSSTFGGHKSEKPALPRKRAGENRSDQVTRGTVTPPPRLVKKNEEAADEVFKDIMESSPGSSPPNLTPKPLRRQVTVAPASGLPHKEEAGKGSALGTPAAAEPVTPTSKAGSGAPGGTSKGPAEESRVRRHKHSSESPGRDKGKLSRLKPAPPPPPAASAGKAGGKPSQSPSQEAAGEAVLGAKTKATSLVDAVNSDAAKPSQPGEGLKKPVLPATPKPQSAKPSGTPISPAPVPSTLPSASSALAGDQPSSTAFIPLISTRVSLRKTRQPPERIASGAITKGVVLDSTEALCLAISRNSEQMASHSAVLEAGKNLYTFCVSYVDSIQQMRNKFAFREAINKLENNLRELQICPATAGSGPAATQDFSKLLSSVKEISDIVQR
method.description: Inhibition of inactive wild type His-tagged ABL (229 to 500 residues) (unknown origin) expressed in baculovirus infected sf9 cells assessed as reduction in autophosphorylation preincubated for 60 mins followed by ATP addition measured after 8 hrs by ADP-Glo assay
readout.type: IC50

Query string: Form field - read-out: IC50; system: Tyrosine-protein kinase ABL1 (Homo sapiens); submitted item: `CN1CCN(Cc2ccc(NC(=O)CCSc3ccc4c(/C=C/c5ccccn5)n[nH]c4c3)cc2C(F)(F)F)CC1`
Result string: 2 nM

* * *

tested.on: Tyrosine-protein kinase ABL1 (Homo sapiens)
method.description: Inhibition of active wild type His-tagged ABL (229 to 500 residues) (unknown origin) expressed in baculovirus infected sf9 cells using ABLtide as substrate after 1 hr by ADP-Glo assay
readout.type: pIC50
# pIC50 is unitless: minus log10 of the molar concentration; print number only

Query string: Form field - read-out: pIC50; system: Tyrosine-protein kinase ABL1 (Homo sapiens); submitted item: `CN1CCN(Cc2ccc(NC(=O)CCSc3ccc4c(/C=C/c5ccccn5)n[nH]c4c3)cc2C(F)(F)F)CC1`
Result string: 7.77

* * *

method.description: Oral bioavailability in Sprague-Dawley rat at 10 mg/kg by LC-MS/MS analysis
Format: ADME, organism-based
test.context: in vivo
readout.type: bioavailability (%)
Report as a plain number; the unit % is understood.

Query string: Returns the measured bioavailability for the input molecule. Input: `CN1CCN(Cc2ccc(NC(=O)CCSc3ccc4c(/C=C/c5ccccn5)n[nH]c4c3)cc2C(F)(F)F)CC1`
Result string: 10.9

* * *

tested.on: Bcr/Abl fusion protein (Homo sapiens)
Sequence (P00519 whole entry, the tested form may be a part): as above
Sequence (P11274 whole entry, further chain, the tested form may be a part): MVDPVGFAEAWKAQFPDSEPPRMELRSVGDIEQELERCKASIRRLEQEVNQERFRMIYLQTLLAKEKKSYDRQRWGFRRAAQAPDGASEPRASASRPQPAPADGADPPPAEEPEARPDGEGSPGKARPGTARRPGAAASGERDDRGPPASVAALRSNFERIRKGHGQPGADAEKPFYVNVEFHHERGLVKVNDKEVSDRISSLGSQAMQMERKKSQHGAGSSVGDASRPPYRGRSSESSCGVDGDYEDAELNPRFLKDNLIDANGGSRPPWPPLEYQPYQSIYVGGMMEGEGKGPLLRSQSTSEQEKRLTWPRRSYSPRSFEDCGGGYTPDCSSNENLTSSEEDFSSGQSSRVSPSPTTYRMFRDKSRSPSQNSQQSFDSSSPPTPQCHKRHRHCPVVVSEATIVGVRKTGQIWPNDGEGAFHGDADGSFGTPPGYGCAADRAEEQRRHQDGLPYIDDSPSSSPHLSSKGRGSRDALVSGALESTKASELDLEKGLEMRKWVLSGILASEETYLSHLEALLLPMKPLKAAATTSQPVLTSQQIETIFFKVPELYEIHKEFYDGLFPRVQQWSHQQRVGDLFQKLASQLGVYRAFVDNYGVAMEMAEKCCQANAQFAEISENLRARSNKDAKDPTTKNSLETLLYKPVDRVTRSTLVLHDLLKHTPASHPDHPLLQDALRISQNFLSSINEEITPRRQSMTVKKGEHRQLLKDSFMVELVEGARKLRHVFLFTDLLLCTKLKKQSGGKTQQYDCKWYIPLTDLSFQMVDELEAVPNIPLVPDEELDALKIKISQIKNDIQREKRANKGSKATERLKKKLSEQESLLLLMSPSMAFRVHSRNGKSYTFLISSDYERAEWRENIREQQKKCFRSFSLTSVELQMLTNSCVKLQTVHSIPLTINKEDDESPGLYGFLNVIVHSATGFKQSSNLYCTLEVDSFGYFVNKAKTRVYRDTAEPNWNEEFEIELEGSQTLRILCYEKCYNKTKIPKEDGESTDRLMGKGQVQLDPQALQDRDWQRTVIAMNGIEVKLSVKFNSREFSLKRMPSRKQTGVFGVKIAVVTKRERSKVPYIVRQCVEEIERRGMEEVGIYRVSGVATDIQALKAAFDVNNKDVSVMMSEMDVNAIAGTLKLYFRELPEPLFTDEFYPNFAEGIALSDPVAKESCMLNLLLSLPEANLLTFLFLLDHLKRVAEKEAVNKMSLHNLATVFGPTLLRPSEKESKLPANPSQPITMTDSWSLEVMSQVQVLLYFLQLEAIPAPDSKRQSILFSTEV
method.description: Inhibition of BCR/ABL in human KU812 cells assessed as inhibition of BCR/ABL autophosphorylation at Y245 site after 1 hr by immunoblotting analysis
Type: cell-based
pEC50: −log10 of the molar value.
readout.type: pEC50

Query string: Returns the measured pEC50 for the input compound. Input: `CN1CCN(Cc2ccc(NC(=O)CCSc3ccc4c(/C=C/c5ccccn5)n[nH]c4c3)cc2C(F)(F)F)CC1`
Result string: > 7.52
